Here the recorded selectivity ratio is given for each entry.
test: in vitro; details: human, cem cells

compound	selectivity ratio
CC(C)[C@H](NC(=O)N(C)Cc1ccccn1)C(=O)N[C@@H](Cc1ccccc1)[C@H](O)[C@H](O)[C@H](Cc1ccccc1)NC(=O)[C@@H](NC(=O)N(C)Cc1ccccn1)C(C)C [A-77003, reference compound]	> 71

With those in mind, consider the next compound.
The compound listed as CSC[C@H](NC(=O)COc1cccc2cnccc12)C(=O)N[C@@H](Cc1ccccc1)[C@H](O)C(=O)N1CSC[C@H]1C(=O)NC(C)(C)C [KNI-272, reference compound] has a reported selectivity ratio of > 3570

Data credit: patent US5763464A
